assayedTarget: Atrial natriuretic peptide receptor 3 (Homo sapiens, UniProt P17342)
Sequence (P17342 whole entry): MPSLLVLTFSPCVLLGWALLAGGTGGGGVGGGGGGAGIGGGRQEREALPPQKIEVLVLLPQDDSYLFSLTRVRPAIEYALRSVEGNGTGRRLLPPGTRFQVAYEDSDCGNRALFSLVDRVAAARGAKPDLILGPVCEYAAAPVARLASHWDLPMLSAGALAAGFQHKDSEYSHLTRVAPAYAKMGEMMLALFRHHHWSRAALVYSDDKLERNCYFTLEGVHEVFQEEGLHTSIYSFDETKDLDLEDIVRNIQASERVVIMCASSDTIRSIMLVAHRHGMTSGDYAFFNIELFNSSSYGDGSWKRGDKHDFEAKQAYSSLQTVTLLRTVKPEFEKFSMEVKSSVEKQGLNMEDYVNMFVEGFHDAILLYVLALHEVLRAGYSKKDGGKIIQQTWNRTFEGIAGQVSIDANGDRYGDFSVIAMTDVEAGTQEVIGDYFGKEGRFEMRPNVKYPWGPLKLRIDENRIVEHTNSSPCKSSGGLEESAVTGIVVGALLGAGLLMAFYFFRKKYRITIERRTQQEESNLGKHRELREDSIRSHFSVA
Numbered stars: 1 amine (or outer) side, 2 acyl side, 3 side chain; on linkers, the order of the positions; unused ones are H or OH. Square brackets hold non-standard residues; d marks the D form. Peptide text beside a SMILES is read from it. * marks the point of attachment. NH(2S-methylbutyl) = CC[C@H](C)CN*; 2Naphthoyl = O=C(c1ccc2ccccc2c1)*; X1 = O=C(Cc1ccc(N[*:1])cc1)[*:2]; PhAc = O=C(Cc1ccccc1)*; X2 = CCC[C@H](C)CN*
recordedEndpoint: Ki (nM)

CC[C@H](C)CNC(=O)[C@H](C)NC(=O)[C@H](CC(=O)O)NC(=O)[C@@H](NC(=O)[C@H](CCCN=C(N)N)NC(=O)Cc1ccc(NC(=O)c2ccc3ccccc3c2)cc1)[C@@H](C)CC (2Naphthoyl-[X1]RIDA-{NH(2S-methylbutyl)}) | 0.4
CCC[C@H](C)CNC(=O)[C@H](CCCN=C(N)N)NC(=O)[C@H](CC(=O)O)NC(=O)[C@@H](NC(=O)[C@H](CCCN=C(N)N)NC(=O)Cc1ccccc1)[C@@H](C)CC (PhAc-RIDR-X2) | 539
CC[C@H](C)[C@@H]1NC(=O)[C@H](CCCNC(=N)N)NC(=O)[C@H](CC(=O)O)NC(=O)[C@H]([C@@H](C)CC)NC(=O)[C@H](CCCNC(=N)N)NC(=O)CNC(=O)CNC(=O)[C@H](Cc2ccccc2)NC(=O)[C@@H](NC(=O)[C@H](CO)NC(=O)[C@H](CO)NC(=O)[C@@H](N)CCCNC(=N)N)CSSC[C@@H](C(=O)O)NC(=O)[C@H](C)NC(=O)CNC1=O | 1.64
CC[C@H](C)CNC(=O)[C@H](CCCNC(=N)N)NC(=O)[C@H](C)NC(=O)[C@@H](NC(=O)[C@H](CCCNC(=N)N)NC(=O)Cc1ccc(NC(=O)c2ccc3ccccc3c2)cc1)[C@@H](C)CC (2Naphthoyl-[X1]RIAR-{NH(2S-methylbutyl)}) | 62
